- Test system: OVCAR-5 ovarian
- procedure.details: NCI-60 one-dose screen, 48 h
- condition.details: 10 µM
The panel holds about 83,000 compounds, 20% with a hit somewhere; the sample as a whole holds those more often. Activity calls are given as the source filed them. Rule for the calls: active = growth percent below 10; inactive = the rest.
Outcome codes: true (active), false (inactive)

>  <molecule>
O=[N+]([O-])c1cc[n+]([O-])c2ccccc12

>  <class.name>
true

$$$$
>  <molecule>
[Cl][Hg][c]1ccc(Cl)s1

>  <class.name>
false

$$$$
>  <molecule>
CC[C@@H](C)[C@@H]1NC(=O)C(NC(=O)C(CC(C)C)N(C)C(=O)C2CCCN2C(=O)C(C)O)C(C)OC(=O)C(Cc2ccc(OC)cc2)N(C)C(=O)C2CCCN2C(=O)C(CC(C)C)NC(=O)C(C)C(=O)C(C(C)C)OC(=O)C[C@H]1O (stereo not given in full)

>  <class.name>
true

$$$$
>  <molecule>
O=C(CBr)Nc1ccccc1

>  <class.name>
false

$$$$
>  <molecule>
O=C1C(=O)c2ccccc2-c2ccccc21

>  <class.name>
true

$$$$
>  <molecule>
Cc1cc(C(C)(C)c2ccc(O)c(C)c2)ccc1O

>  <class.name>
false

$$$$
>  <molecule>
COc1ccccc1[As]=[As]c1ccccc1OC (stereo not given)

>  <class.name>
true

$$$$
>  <molecule>
C[C@]12CC[C@H]3[C@@H](CCC4=CC(=O)CC[C@@H]43)[C@@H]1CC[C@@H]2OC(=O)N(CCCl)N=O

>  <class.name>
false

$$$$
>  <molecule>
CCCCCCCC[N+]12CN3CN(CN(C3)C1)C2

>  <class.name>
false

$$$$
>  <molecule>
CC(=O)Nc1c2sscc-2n(C)c1=O

>  <class.name>
true

$$$$
>  <molecule>
COc1ccc(/C=C(\C)[N+](=O)[O-])cc1OC

>  <class.name>
false

$$$$
>  <molecule>
O=[N+]([O-])/C=C\c1ccc2c(c1)OCO2

>  <class.name>
false

$$$$
>  <molecule>
COC(C(=O)C(O)C(C)O)C1Cc2cc3cc(OC4CC(OC(C)=O)C(OC5CC(O)C(OC)C(C)O5)C(C)O4)cc(O)c3c(O)c2C(=O)C1OC1CC(OC2CC(OC3CC(C)(O)C(OC(=O)C(C)C)C(C)O3)C(O)C(C)O2)C(O)C(C)O1 (stereo not given)

>  <class.name>
true

$$$$
>  <molecule>
CC(Cc1ccc2c(c1)OCO2)NN (stereo not given)

>  <class.name>
false

$$$$
>  <molecule>
C=C1C(=O)O[C@@H]2C[C@@H](C)[C@@H]3C=CC(=O)[C@@]3(C)[C@@H](O)[C@H]12

>  <class.name>
true

$$$$
>  <molecule>
NC(=O)c1cc([N+](=O)[O-])c(Cl)c([N+](=O)[O-])c1

>  <class.name>
false

$$$$
>  <molecule>
CC[C@@]1(O)C[C@H](OC2CC(N(C)C)C(O)C(C)O2)c2c(cc3c(c2O)C(=O)c2c(O)ccc(O)c2C3=O)[C@H]1C(=O)OC (stereo not given in full)

>  <class.name>
true

$$$$
>  <molecule>
ClCc1ccc2ccccc2n1

>  <class.name>
false

$$$$
>  <molecule>
CC1CCC2(OC1)OC1C(O)C3C4CCC5CC(OC6OC(CO)C(OC7OC(CO)C(O)C(OC8OCC(O)C(O)C8O)C7OC7OC(CO)C(O)C(OC8OC(CO)C(O)C(O)C8O)C7O)C(O)C6O)C(O)CC5(C)C4CCC3(C)C1C2C (stereo not given)

>  <class.name>
true

$$$$
>  <molecule>
COc1cc(/C=C/[N+](=O)[O-])cc(OC)c1OC

>  <class.name>
false

$$$$
>  <molecule>
O=C(O)c1cc(Cc2ccc(O)c(C(=O)O)c2)ccc1O (tested in a mixture with another compound)

>  <class.name>
false

$$$$
>  <molecule>
CN(CCCl)c1ccc(/C=C/C2=[N+](C)c3ccccc3C2(C)C)cc1

>  <class.name>
false

$$$$
>  <molecule>
O=S(=O)(F)c1ccc(Cl)cc1

>  <class.name>
false

$$$$
>  <molecule>
O=C(CCl)Nc1ccc(Cl)cc1

>  <class.name>
false

$$$$
>  <molecule>
O=[N+]([O-])c1ccc(N(CCO)CCO)c2c1no[n+]2[O-]

>  <class.name>
false

$$$$
>  <molecule>
COS(=O)(=O)c1ccccc1

>  <class.name>
false

$$$$
>  <molecule>
COC(=O)C1C(O)C(C)C(O)C(C)/C=C\C=C(C)C(=O)Nc2c(C)c(OC(C)=O)c3c(c2O)C(=O)C(C)=C2OCOC(=C23)C(C)=CC(C)(O)C(O)C(C)C1O (stereo not given)

>  <class.name>
false

$$$$
>  <molecule>
CC/C(=C/c1ccc(OC)cc1OC)[N+](=O)[O-]

>  <class.name>
false

$$$$
>  <molecule>
[Cl][Hg][c]1ccc2ccccc2c1

>  <class.name>
true

$$$$
>  <molecule>
[O-][n+]1ccccc1S

>  <class.name>
false

$$$$
>  <molecule>
COc1cc2c(c(OC)c1OC)-c1ccc(O)c(=O)cc1[C@@H](NC(C)=O)CC2

>  <class.name>
false

$$$$
>  <molecule>
O=[N+]([O-])c1ccc(N2CCOCC2)c2c1no[n+]2[O-]

>  <class.name>
false

$$$$
>  <molecule>
O=C1CCC(=O)N1SC(Cl)(Cl)Cl

>  <class.name>
false

$$$$
>  <molecule>
CN(C)CC1(N)C(=O)NC(=O)NC1=O

>  <class.name>
false

$$$$
>  <molecule>
CC(C)C1(NC(=O)C2CC3c4cccc5[nH]cc(c45)CC3N(C)C2)OC2(O)C3CCCN3C(=O)C(Cc3ccccc3)N2C1=O (stereo not given)

>  <class.name>
false

$$$$
>  <molecule>
CC/C(=C/c1ccc(OC)cc1)[N+](=O)[O-]

>  <class.name>
false

$$$$
>  <molecule>
CC(=O)[O][Hg][c]1c(C)c(C)cc(C)c1C

>  <class.name>
true

$$$$
>  <molecule>
COc1ccc2c(ccc3oc([N+](=O)[O-])cc32)c1

>  <class.name>
true

$$$$
>  <molecule>
Oc1c(Cl)cc(Cl)c2ccccc12.[Cu+2]

>  <class.name>
false

$$$$
>  <molecule>
C/C1=C\[C@H](C)C[C@H](C)OC(=O)C[C@H](c2ccc(O)cc2)NC(=O)[C@@H](Cc2c(Br)[nH]c3ccccc23)N(C)C(=O)[C@H](C)NC(=O)[C@@H](C)C1

>  <class.name>
true

$$$$
